# subject.of.test: Human Cot (Homo sapiens (Human), UniProt P41279)
# Sequence (P41279 30-397): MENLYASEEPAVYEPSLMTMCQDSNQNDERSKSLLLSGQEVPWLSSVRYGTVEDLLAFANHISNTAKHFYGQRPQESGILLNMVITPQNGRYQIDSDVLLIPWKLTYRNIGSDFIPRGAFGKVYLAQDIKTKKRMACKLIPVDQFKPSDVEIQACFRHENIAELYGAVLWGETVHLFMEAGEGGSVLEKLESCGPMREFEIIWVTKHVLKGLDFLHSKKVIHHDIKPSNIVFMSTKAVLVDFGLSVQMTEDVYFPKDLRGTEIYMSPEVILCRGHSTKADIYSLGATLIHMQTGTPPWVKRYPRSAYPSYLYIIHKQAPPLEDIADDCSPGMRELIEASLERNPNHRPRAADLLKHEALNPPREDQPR
# assay.procedure: High Throughput Cot Biochemical Assay
# conditions.used: IC50 HTRF, Cot HTRF (TR-FRET) biochemical assay
value.kind: pIC50
Just so you know, pIC50 here is -log10 of the concentration in molar units; reply with that number alone.

Which value of pIC50 has been reported for `CN(C)CCn1cc([C@@H](Nc2cc(Cl)c3ncc(C#N)c(Nc4ccc(F)c(Cl)c4)c3c2)c2cscn2)nn1` in the records?
8.30

Which pIC50 value is on record for `[2H]C([2H])(Nc1c(C#N)cnc2c(Cl)cc(N[C@H](c3cn(C4(C(F)F)CC4)nn3)c3ccc(F)nc3C)cc12)C(C)(C)C` ?
8.52

Report pIC50 for `CCN1CCC(n2cc([C@@H](Nc3cc(Cl)c4ncc(C#N)c(Nc5ccc(F)c(Cl)c5)c4c3)c3ccsc3)nn2)CC1` please.
8.52

Which pIC50 value belongs to `CC(C)(C)CNc1c(C#N)cnc2c(Cl)cc(N[C@H](c3cn(C4CC4)nn3)c3csc4cnccc34)cc12` ?
8.70

I am curious: what pIC50 value has been reported for `Cc1nc(F)ccc1[C@H](Nc1cc(Cl)c2ncc(C#N)c(NCC(C)(C)C)c2c1)c1cn(C2(C(=O)O)CC(F)(F)C2)nn1` ?
7.96

So what's the measured pIC50 for this one? `CC(C)(C)CNc1c(C#N)cnc2c(Cl)cc(N[C@@H](c3cnc4ccccc4c3)c3cn(C4(C(F)(F)F)CC4)nn3)cc12`
6.74

Please find the next compound below.
Which pIC50 value is on record for `N#Cc1cnc2c(Cl)cc(N[C@@H](c3cscn3)c3c[nH]nn3)cc2c1Nc1ccc(F)c(Cl)c1` ?
8.22

---

# Tested on: TNFα
# assay.procedure: Cot Monocyte TNFα Cell Based Assay
# conditions.used: Homo sapiens, Monocyte, read-out: EC50 TNF, LPS-stimulated human monocytes, TNFα
Here the recorded pEC50 is given for each entry.
As a rule, pEC50 stands for the negative log10 of the concentration, concentration in M.

Study these solved cases before continuing.
Item: Cn1ncc2c([C@H](Nc3cc(Cl)c4ncc(C#N)c(NCC(C)(C)C)c4c3)c3cn(C4(C(F)F)CC4)nn3)cccc21 [Example 496] Test system: TNFα Read-out: pEC50 Value: ?
6.33

Field: pEC50 (TNFα). Entry: Cc1cncc([C@H](Nc2cc(Cl)c3ncc(C#N)c(Nc4ccc(F)c(Cl)c4)c3c2)c2cn(C3CCN(C(C)(C)C)CC3)nn2)c1 [Example 250]
6.90

Consider now this further compound.
# value lookup — system TNFα, readout pEC50, item N#Cc1csc([C@H](Nc2cc(Cl)c3ncc(C#N)c(Nc4ccc(F)c(Cl)c4)c3c2)c2cn(C3COC3)nn2)c1 [Example 339]
6.00

---

# Test system: TNFα
# assay.procedure: Cot Monocyte TNFα Cell Based Assay
# conditions.used: Homo sapiens, Monocyte, read-out: EC50 TNF, LPS-stimulated human monocytes, TNFα
Recorded pEC50 for the following compounds
Lab note — pEC50 values are minus log10 of concentrations in M.

Recorded results for 2 compounds are shown here.
For the compound `CC(C)(C)CNc1c(C#N)cnc2c(Cl)cc(N[C@H](c3cn(C4(C(F)(F)F)CC4)nn3)c3cccn4nccc34)cc12` , what pEC50 is on record?
6.54

Need pEC50, item `CC(C)n1cc([C@@H](Nc2cc(Cl)c3ncc(C#N)c(Nc4ccc(F)c(Cl)c4)c3c2)c2csc3c2CCN(C)C3)nn1`
7.14

***
Give the measured pEC50 of `Cc1ncsc1[C@H](Nc1cc(Cl)c2ncc(C#N)c(N[C@H](C)c3ccccc3)c2c1)c1c[nH]nn1` .
5.02

Field request: pEC50 | item: `Cc1nc(F)ccc1[C@H](Nc1cc(C#N)c2ncc(C#N)c(NCC(C)(C)C)c2c1)c1cn(C2(C#N)CCC2)nn1`
7.40

Reported pEC50, compound `N#Cc1cnc2c(Cl)cc(N[C@H](c3cn(C4CC4)nn3)c3ccc(F)nc3F)cc2c1Nc1cnc(F)c(F)c1` : ____
6.42

Give its pEC50 value. Item: `Cc1nc(F)ccc1[C@H](Nc1cc(Cl)c2ncc(C#N)c(NCC(C)(C)C(F)(F)F)c2c1)c1cn(C2(C(F)F)CC2)nn1`
7.32

So what does the record say about pEC50 for `CC(C)n1cc([C@@H](Nc2cc(Cl)c3ncc(C#N)c(Nc4ccc(F)c(Cl)c4)c3c2)c2cnco2)nn1` ?
5.82

---

# Tested on: TNFα
# assay.procedure: Cot Monocyte TNFα Cell Based Assay
# conditions.used: Homo sapiens, Monocyte, read-out: EC50 TNF, LPS-stimulated human monocytes, TNFα
# log10(EC50) listing for each entry below
Please interpret these as log10 of EC50 where EC50 is in µM.

In the examples that follow, each entry is paired with its recorded log10(EC50).
Would you mind telling me what log10(EC50) value was observed for Cc1ncccc1[C@H](Nc1cc(Cl)c2ncc(C#N)c(N[C@H](CO)c3ccccc3)c2c1)c1c[nH]nn1 [Example 218] ?
0.43

So what's the measured log10(EC50) for this one? Cn1cnc2cccc([C@H](Nc3cc(C#N)c4ncc(C#N)c(NCC(C)(C)C)c4c3)c3cn(C4(C(F)(F)F)CC4)nn3)c21 [Example 484]
-1.14

Can you share its log10(EC50)? I mean this compound: CC(C)n1ccc2c([C@H](Nc3cc(Cl)c4ncc(C#N)c(NCC(C)(C)C)c4c3)c3cn(C4(C)CC4)nn3)cccc2c1=O [Example 774]
-1.40

For the compound shown here, Cc1ncccc1[C@H](Nc1cc(Cl)c2ncc(C#N)c(Nc3cccc(Cl)c3F)c2c1)c1c[nH]nn1 [Example 248] , give the reported log10(EC50).
-0.40

Field request: log10(EC50) | item: [2H][C@](Nc1cc(Cl)c2ncc(C#N)c(N[C@H](CC)c3ccccc3)c2c1)(c1ccc(F)nc1)c1c[nH]nn1 [Example 134]
-0.71

Item N#Cc1cnc2c(Cl)cc(N[C@@H](c3ccc(F)nc3)c3c[nH]nn3)cc2c1Nc1cnc(F)c(F)c1 [Example 166] has what recorded log10(EC50)?
0.16

New cases:
Please report the recorded log10(EC50) for CC(C)(C)N1CCC(n2cc([C@@H](Nc3cc(Cl)c4ncc(C#N)c(Nc5cncc(Cl)c5)c4c3)c3cccnc3)nn2)CC1 [Example 284] .
0.11

Recorded log10(EC50) of CC(C)(C)CNc1c(C#N)cnc2c(Cl)cc(N[C@H](c3cn(C4(CF)CC4)nn3)c3cccc4ccncc34)cc12 [Example 594] , please.
-1.48

If you can, please state the reported log10(EC50) value of Cc1nc(F)ccc1[C@H](Nc1cc(Cl)c2ncc(C#N)c(NCC(C)(C)C)c2c1)c1cn(C2(CF)CC2)nn1 [Example 495] .
-1.30

Recorded log10(EC50) of CC(C)(C)CNc1c(C#N)cnc2c(Cl)cc(N[C@H](c3cn(C4(C(F)(F)F)CC4)nn3)c3cncc4ccccc34)cc12 [Example 628] , please.
0.00

Consider the compound shown here: Cc1nc(F)ccc1[C@H](Nc1cc(C#N)c2ncc(C#N)c(NCC(C)(C)C)c2c1)c1nnn(C2CC2)c1F [Example 681] What is its recorded log10(EC50)?
-1.59

Given CC(C)(C)CNc1c(C#N)cnc2c(Cl)cc(N[C@H](c3cn(C(C)(C)CF)nn3)c3cccc4ncccc34)cc12 [Example 694] , state its recorded log10(EC50).
-1.08

Which measured log10(EC50) value corresponds to Cc1ccc([C@H](Nc2cc(Cl)c3ncc(C#N)c(Nc4ccc(F)c(Cl)c4)c3c2)c2cn(C3CCN(C(C)(C)C)CC3)nn2)cn1 [Example 281] ?
-0.24

log10(EC50) for [2H][C@](Nc1cc(Cl)c2ncc(C#N)c(NCC(C)(C)C)c2c1)(c1ccc(F)nc1)c1cn(C2(C(F)F)CC2)nn1 [Example 518] ?
-0.68

I have this compound here, Cc1nc(F)ccc1[C@H](Nc1cc(Cl)c2ncc(C#N)c(NCC(C)(C)C)c2c1)c1cn(C(C)(C)C(F)(F)F)nn1 [Example 541] , and I need its recorded log10(EC50).
-0.74

---

# Test system: TNFα
# assay.procedure: Cot Monocyte TNFα Cell Based Assay
# conditions.used: Homo sapiens, Monocyte, read-out: EC50 TNF, LPS-stimulated human monocytes, TNFα
value.kind: EC50

Please look up its EC50: CCN1CCC(n2cc(C(Nc3cc(Cl)c4ncc(C#N)c(Nc5ccc(F)c(Cl)c5)c4c3)c3ncccn3)nn2)CC1 (centres unmarked) [Example 367]
338 nM

Which measured EC50 value corresponds to Cc1nc(F)ccc1[C@H](Nc1cc(Cl)c2ncc(C#N)c(NCC(C)(C)C)c2c1)c1cn(CC2(C(F)(F)F)CC2)nn1 [Example 751] ?
230 nM

So what does the record say about EC50 for CC(C)n1cc([C@@H](Nc2cc(Cl)c3ncc(C#N)c(Nc4ccc(F)c(Cl)c4)c3c2)c2cccnc2Cl)nn1 [Example 297] ?
200 nM

# input molecule: Cc1ncccc1[C@H](Nc1cc(Cl)c2ncc(C#N)c(Nc3cccc(Cl)c3)c2c1)c1c[nH]nn1 [Example 224] ; wanted: its EC50
2630 nM

Could you share which EC50 value was measured for Cc1ncccc1[C@H](Nc1cc(Cl)c2ncc(C#N)c(Nc3ccc(Cl)c(Cl)c3F)c2c1)c1cn(C(C)C)nn1 [Example 232] ?
346 nM

Can you share its EC50? I mean this molecule: CC(C)(C)N1CCC(n2cc([C@@H](Nc3cc(Cl)c4ncc(C#N)c(Nc5ccc(F)c(Cl)c5)c4c3)c3cocn3)nn2)CC1 [Example 348]
444 nM

Need EC50, item Cn1ccc2c([C@H](Nc3cc(Cl)c4ncc(C#N)c(NCC(C)(C)C)c4c3)c3cn(C4(C(F)F)CC4)nn3)cccc2c1=O [Example 744]
33 nM

Can you look up the measured EC50 of Cc1nc(F)ccc1[C@H](Nc1cc(Cl)c2ncc(C#N)c(N[C@@H]3CCOCC3(C)C)c2c1)c1cn(C2(C(F)F)CC2)nn1 [Example 539] for me?
12 nM

What EC50 value was documented for this molecule, Cn1ccc2c([C@H](Nc3cc(Cl)c4ncc(C#N)c(NCC(C)(C)C)c4c3)c3cn(C45CC(C4)C5)nn3)cccc2c1=O [Example 713] ?
21 nM

May I ask what EC50 has been recorded for COC[C@H](Nc1c(C#N)cnc2c(Cl)cc(N[C@@H](c3cccnc3)c3c[nH]nn3)cc12)c1ccccc1 [Example 203] ?
9090 nM

Others:
EC50 lookup needed for Cc1nc(F)ccc1[C@H](Nc1cc(Cl)c2ncc(C#N)c(N[C@@H](c3ccccc3)C3CC3)c2c1)c1cn(C2(C(F)(F)F)CC2)nn1 [Example 611] , thanks.
229 nM

I have this molecule here, Cn1ccc2c([C@H](Nc3cc(Cl)c4ncc(C#N)c(NCC(C)(C)CO)c4c3)c3cn(C45CC(C4)C5)nn3)cccc2c1=O [Example 768] , and I need its recorded EC50.
86 nM

What value of EC50 has been recorded for this entry: Cc1nc(F)ccc1[C@H](Nc1cc(Cl)c2ncc(C#N)c(NCC(C)(C)C)c2c1)c1cn(C2(C(C)(C)C)CC2)nn1 [Example 761]
69 nM

Param item = [2H][C@](Nc1cc(Cl)c2ncc(C#N)c(NCC(C)(C)C)c2c1)(c1ccc(F)nc1)c1c[nH]nn1 [Example 135] ; retrieve measured EC50.
660 nM
